Data provenance: paper PMC9482650

- TARGET_SYSTEM: T1, APBA1_2, Q02410
- T1 sequence (Q02410 742-832, limits assumed, looked up): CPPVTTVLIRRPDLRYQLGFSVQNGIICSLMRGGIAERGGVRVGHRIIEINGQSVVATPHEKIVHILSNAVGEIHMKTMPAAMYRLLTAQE
- ASSAY_TEXT: holdup assay
- Parameters: key: below the threshold = too weak to quantify, mostly under pKd 3.1 to 4
- ASSAY_SETUP: plain residues with an end cap or a label only (N-terminal biotin on a linker: ttds)
PROPERTY_NAME: pKd
Format: numeric value only, no unit, no commentary.

Q: # query: pKd of entry VLRLQSETSV [VANGL1, Q8TAA9]
Result: 3.6

Q: How about this binder: STLTIFETAL [ABCC4, O15439]
Result: 4.03

Q: How about this binder: PKTPPTDTSV [KIR3DL3, Q8N743]
Result: 3.74

Q: How about this binder: SVWLRKETRV [CYSLTR2, Q9NS75]
Result: 3.84

Q: How about this binder: RSLEEEESQL [GRASP, Q7Z6J2]
Result: 3.65

Q: How about this binder: GQDSREETQL [KCNT2, Q6UVM3]
Result: 3.79
